TEST_PROTOCOL: reversal of MRP1-mediated doxorubicin resistance, pilot screen, H69AR cells, doxorubicin co-treatment (AID 601)
RUN_CONDITIONS: H69AR cells + 2 uM doxorubicin, CellTiter-Glo, 72 h; measured here: viability with 2 uM doxorubicin; at 10 µM; stronger effect = lower value
Entries annotated with measured viability

COMPOUND: COc1ccc(C(C(C(=O)c2ccco2)N2CCOCC2)N2CCOCC2)cc1 (centres undefined)
UNIT_ABBREVIATION: %
viability: 91.4

COMPOUND: Cc1c(C(=O)NCc2cccnc2)oc2ccc(S(=O)(=O)N3CCCCC3)cc12
UNIT_ABBREVIATION: %
viability: 91.4

COMPOUND: COc1ccc(CCNC(=O)CSc2nncn2N)cc1OC
UNIT_ABBREVIATION: %
viability: 88.4

COMPOUND: COc1cc(OC)c(OC)cc1CN(C)CCc1ccccn1
UNIT_ABBREVIATION: %
viability: 91.8

COMPOUND: CCN(CC)CCOc1cccc(C(C)C)c1
UNIT_ABBREVIATION: %
viability: 91.8

COMPOUND: CC(C)CC(=O)Nc1ccccc1-c1nnn(CC(=O)N2CCOCC2)n1
UNIT_ABBREVIATION: %
viability: 88.5

COMPOUND: Cn1c2ccc(F)cc2c2ncn(CCN3CCOCC3)c(=O)c21
UNIT_ABBREVIATION: %
viability: 90.4

COMPOUND: COc1cc(-c2noc(-c3cccc(Cl)c3)n2)cc(OC)c1OC
UNIT_ABBREVIATION: %
viability: 90.6

COMPOUND: Cc1cccc(N2C(=O)CC(Sc3nc(C)c4c(n3)CCCC4)C2=O)c1 (centres undefined)
UNIT_ABBREVIATION: %
viability: 90.3

----------
TEST_PROTOCOL: reversal of MRP1-mediated doxorubicin resistance, pilot screen, H69AR cells, doxorubicin co-treatment (AID 601)
RUN_CONDITIONS: H69AR cells + 2 uM doxorubicin, CellTiter-Glo, 72 h; at 10 µM; stronger effect = higher value
Entries annotated with measured differential viability (reversal)
MEASURE: differential viability (reversal) (%)

COMPOUND: CCOc1ccc(CN2CCN(c3cc(C)nc4c5c(C)cc(C)nc5nn34)CC2)cc1
MEASURE: differential viability (reversal)
UNIT_ABBREVIATION: %
QUANTITATIVE_READOUT: -3.18

COMPOUND: Cc1nc(N)c(C#N)c(-c2cccnc2)c1C
MEASURE: differential viability (reversal)
UNIT_ABBREVIATION: %
QUANTITATIVE_READOUT: -13.1

COMPOUND: COC(=O)c1cnc2c(C(F)(F)F)cccc2c1OC
MEASURE: differential viability (reversal)
UNIT_ABBREVIATION: %
QUANTITATIVE_READOUT: 11.6

COMPOUND: CCN1CCN(Cc2ccc(NC(=O)Nc3ccc(SC)cc3)cc2)CC1
MEASURE: differential viability (reversal)
UNIT_ABBREVIATION: %
QUANTITATIVE_READOUT: 18.2

COMPOUND: O=S(=O)(NCc1cccnc1)c1cccc2nsnc12
MEASURE: differential viability (reversal)
UNIT_ABBREVIATION: %
QUANTITATIVE_READOUT: 6.5

COMPOUND: Cc1ccc(S(=O)(=O)NCCN2CCOCC2)cc1C
MEASURE: differential viability (reversal)
UNIT_ABBREVIATION: %
QUANTITATIVE_READOUT: -5.21

COMPOUND: CCOc1ccc(NCCC(=O)c2ccc3c(c2)OCO3)cc1
MEASURE: differential viability (reversal)
UNIT_ABBREVIATION: %
QUANTITATIVE_READOUT: -13.5

COMPOUND: Cc1cc(C)c(NC(=O)C2CSCCS2)c(C)c1 (stereo not drawn)
MEASURE: differential viability (reversal)
UNIT_ABBREVIATION: %
QUANTITATIVE_READOUT: 14.1

COMPOUND: N#CCSc1nc2c(c(C3CC=CCC3)c1C#N)CCC2 (stereo not drawn)
MEASURE: differential viability (reversal)
UNIT_ABBREVIATION: %
QUANTITATIVE_READOUT: 12.8

COMPOUND: COc1ccc(C(C(C(=O)c2ccco2)N2CCOCC2)N2CCOCC2)cc1 (stereo not drawn)
MEASURE: differential viability (reversal)
UNIT_ABBREVIATION: %
QUANTITATIVE_READOUT: -4.03

COMPOUND: COc1ccc(-n2c(SCC#N)nc3ccccc3c2=O)cc1
MEASURE: differential viability (reversal)
UNIT_ABBREVIATION: %
QUANTITATIVE_READOUT: -12.8

COMPOUND: O=C1CCCC(O)=C1C=Nc1ccc2c(c1)oc1ccccc12
MEASURE: differential viability (reversal)
UNIT_ABBREVIATION: %
QUANTITATIVE_READOUT: -11.3

COMPOUND: CC(=O)Nc1c(Cl)n(C(C)=O)c2ccccc12
MEASURE: differential viability (reversal)
UNIT_ABBREVIATION: %
QUANTITATIVE_READOUT: -6.37

COMPOUND: O=C(NC1CCCc2ccccc21)C1CCN(S(=O)(=O)c2cnc[nH]2)CC1 (stereo not drawn)
MEASURE: differential viability (reversal)
UNIT_ABBREVIATION: %
QUANTITATIVE_READOUT: -11.3

COMPOUND: CCCOc1ccc(OCCSc2ncccn2)cc1
MEASURE: differential viability (reversal)
UNIT_ABBREVIATION: %
QUANTITATIVE_READOUT: 18.8

COMPOUND: CCN(CCNC(=O)C1CCN(S(C)(=O)=O)CC1)c1ccccc1
MEASURE: differential viability (reversal)
UNIT_ABBREVIATION: %
QUANTITATIVE_READOUT: 5.42

COMPOUND: COc1ccc(C(=O)N2CCN(c3nc4cc(C)ccc4cc3C#N)CC2)c(OC)c1
MEASURE: differential viability (reversal)
UNIT_ABBREVIATION: %
QUANTITATIVE_READOUT: -9.04

COMPOUND: Cc1ccccc1CS(=O)(=O)CCC(=O)N1CCN(c2ccc(N3CCOCC3)nn2)CC1
MEASURE: differential viability (reversal)
UNIT_ABBREVIATION: %
QUANTITATIVE_READOUT: 10.7

COMPOUND: CC1(C)CC(=O)C=C(Nc2ccc(F)cc2)C1
MEASURE: differential viability (reversal)
UNIT_ABBREVIATION: %
QUANTITATIVE_READOUT: 6.35

COMPOUND: Cc1cc(NS(=O)(=O)c2ccccc2)n(-c2ccccc2)n1
MEASURE: differential viability (reversal)
UNIT_ABBREVIATION: %
QUANTITATIVE_READOUT: -2.34

COMPOUND: O=S(=O)(NCC(c1cccnc1)N1CCN(c2ccccc2)CC1)c1cc(F)ccc1F (stereo not drawn)
MEASURE: differential viability (reversal)
UNIT_ABBREVIATION: %
QUANTITATIVE_READOUT: -8.3

COMPOUND: COc1ccc(S(=O)(=O)N2CCN(CC(=O)Nc3ccc(C)c(F)c3)CC2)cc1
MEASURE: differential viability (reversal)
UNIT_ABBREVIATION: %
QUANTITATIVE_READOUT: -25.9

COMPOUND: COc1ccc(C)cc1NC(=O)CN(Cc1nnc(-c2ccc(Cl)cc2)o1)C1CCCC1
MEASURE: differential viability (reversal)
UNIT_ABBREVIATION: %
QUANTITATIVE_READOUT: -33.9

COMPOUND: CCCOc1ccccc1NC(=O)c1c(-c2ccccc2)noc1C
MEASURE: differential viability (reversal)
UNIT_ABBREVIATION: %
QUANTITATIVE_READOUT: 7.04

COMPOUND: COc1ccccc1Nc1ccc(C(=O)NC2CCCCC2)cn1
MEASURE: differential viability (reversal)
UNIT_ABBREVIATION: %
QUANTITATIVE_READOUT: 12

COMPOUND: C=CCOc1ccc(C2C(C(=O)c3ccco3)=C(O)C(=O)N2Cc2cccnc2)cc1 (stereo not drawn)
MEASURE: differential viability (reversal)
UNIT_ABBREVIATION: %
QUANTITATIVE_READOUT: 2.87

COMPOUND: COc1cccc(OC)c1C(=O)Nc1cccc(C(C)=O)c1
MEASURE: differential viability (reversal)
UNIT_ABBREVIATION: %
QUANTITATIVE_READOUT: 6.47

COMPOUND: COc1ccc(-c2c(C(F)(F)F)oc3c(CN4CCN(C)CC4)c(O)ccc3c2=O)cc1
MEASURE: differential viability (reversal)
UNIT_ABBREVIATION: %
QUANTITATIVE_READOUT: -1.1

COMPOUND: Cc1cc(=O)n(-c2ccc3ccccc3n2)[nH]1
MEASURE: differential viability (reversal)
UNIT_ABBREVIATION: %
QUANTITATIVE_READOUT: -2.73

COMPOUND: CNC(=O)CC(C(=O)O)c1ccc(OCC(C)C)cc1 (stereo not drawn)
MEASURE: differential viability (reversal)
UNIT_ABBREVIATION: %
QUANTITATIVE_READOUT: 4.75

COMPOUND: Cc1ccc(C)c(-n2c(CNC(=O)c3ccco3)nnc2SCC(=O)Nc2nnc(C)s2)c1
MEASURE: differential viability (reversal)
UNIT_ABBREVIATION: %
QUANTITATIVE_READOUT: 5.91

COMPOUND: COc1ccc(N2CCN(C(=O)COc3ccc4ccccc4c3)CC2)cc1
MEASURE: differential viability (reversal)
UNIT_ABBREVIATION: %
QUANTITATIVE_READOUT: 17.1

COMPOUND: O=C(OCc1nnc(-c2ccc(Cl)cc2)o1)c1ccc(=O)n(Cc2ccccc2)n1
MEASURE: differential viability (reversal)
UNIT_ABBREVIATION: %
QUANTITATIVE_READOUT: 13.1
